target: hNNMT (Homo sapiens, UniProt P40261); assay: Fluorescence based NNMT enzymatic assay (human); conditions: recombinant human NNMT, fluorescence of an MNA derivative; read-out: hNNMT IC50
Sequence (P40261 whole entry): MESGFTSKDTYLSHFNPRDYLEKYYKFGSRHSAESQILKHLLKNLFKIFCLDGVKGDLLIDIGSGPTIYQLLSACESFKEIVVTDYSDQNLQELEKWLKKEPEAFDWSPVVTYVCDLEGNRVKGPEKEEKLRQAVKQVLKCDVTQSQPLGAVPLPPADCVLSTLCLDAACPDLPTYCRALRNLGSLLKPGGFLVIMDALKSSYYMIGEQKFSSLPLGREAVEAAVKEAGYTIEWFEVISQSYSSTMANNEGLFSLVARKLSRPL
Measured Parameter: pIC50
Please express pIC50 as -log10 of the molar concentration.

Prompt: Quick check: pIC50 on hNNMT (Homo sapiens, UniProt P40261), item CN1Cc2cccc3c2N(CCC3)C1=N [Compound (1)] ?
Completion: 6.89

Prompt: Quick check: pIC50 on hNNMT (Homo sapiens, UniProt P40261), item CN1Cc2cccc3c2N(CCS3)C1=N [Compound (13)] ?
Completion: 6.07

Prompt: Quick check: pIC50 on hNNMT (Homo sapiens, UniProt P40261), item N=c1sc2cccc3c2n1CCC3 [A] ?
Completion: 5.80

Prompt: Quick check: pIC50 on hNNMT (Homo sapiens, UniProt P40261), item CN1Cc2cc(F)cc3c2N(CCC3)C1=N [Compound (2)] ?
Completion: 7.23

Prompt: Quick check: pIC50 on hNNMT (Homo sapiens, UniProt P40261), item Br.CN1Cc2c(F)c(F)cc3c2N(CC3)C1=N [Compound (9)] ?
Completion: 6.31

Prompt: Quick check: pIC50 on hNNMT (Homo sapiens, UniProt P40261), item Br.CN1Cc2cc(F)cc3c2N(CCO3)C1=N [Compound (18)] ?
Completion: 7.16

Prompt: Quick check: pIC50 on hNNMT (Homo sapiens, UniProt P40261), item CN1Cc2cccc3c2N(CCN3C#N)C1=N [Compound (14)] ?
Completion: 6.60

Prompt: Quick check: pIC50 on hNNMT (Homo sapiens, UniProt P40261), item CCn1c(=N)n2c3c(cccc31)CCC2 [B] ?
Completion: 6.74

Prompt: Quick check: pIC50 on hNNMT (Homo sapiens, UniProt P40261), item CN1Cc2cccc3c2N(CCO3)C1=N [Compound (12)] ?
Completion: 6.74

Prompt: Quick check: pIC50 on hNNMT (Homo sapiens, UniProt P40261), item CN1Cc2cncc3c2N(CCC3)C1=N [Compound (4)] ?
Completion: 6.44
